experiment: rat acute oral toxicity; conditions: in vivo
assay-readout: LD50 (mg/kg)
Give bare numbers, in mg/kg.

Before answering, review these 3 worked examples.
{"columns": ["compound", "measurement"],
 "data": [
  ["Cc1ccc2nc(-c3ccc(N)cc3)sc2c1", 5650],
  ["O=S(=O)(O)c1ccc(Nc2nc(Nc3ccc(/C=C/c4ccc(Nc5nc(Nc6ccc(S(=O)(=O)O)cc6)nc(N(CCO)CCO)n5)cc4S(=O)(=O)O)c(S(=O)(=O)O)c3)nc(N(CCO)CCO)n2)cc1", 5300],
  ["CC(C)(c1ccc(O)cc1)c1ccc(O)cc1", 3250]
]}

Items follow; give LD50 for each.
1. ClC1=C(Cl)C2(Cl)C3C4CC(C5OC45)C3C1(Cl)C2(Cl)Cl (stereo unspecified)
2. NC(=O)c1ccccc1O
3. CCC(C)c1cc([N+](=O)[O-])cc([N+](=O)[O-])c1OC(=O)C=C(C)C (stereo unspecified)
4. Oc1ccc(Cl)cc1Cc1cc(Cl)ccc1O
5. CCCCOC(=O)C(C)Oc1ccc(Oc2ccc(C(F)(F)F)cn2)cc1 (stereo unspecified)

A:
1: 3; 2: 980; 3: 58; 4: 1510; 5: 2910

List the reported LD50 of each compound below.
1. C[C@@H](O)C(=O)O
2. C1CC2OC2CC1C1CO1 (stereo unspecified)
3. CN(C)CCCCCCN(C)C
4. N=C(NCCCCCCNC(=N)NC(=N)Nc1ccc(Cl)cc1)NC(=N)Nc1ccc(Cl)cc1
5. ClCCl
6. O=C1O[B-]2(OC1=O)OC(=O)C(=O)O2
7. ClCc1ccccc1

A:
3540
2130
238
1180
1500
175
440

Kindly give each listed record's LD50.
1. Cc1nnc(-c2ccccc2)c(=O)n1N
2. CCCOC(C)=O
3. CCCCOP(=O)(OCCCC)Oc1ccccc1
4. Nc1ccc(O)c([N+](=O)[O-])c1
5. COP(=S)(OC)Oc1ccc(C#N)cc1
6. O=C(O)c1ccc2cc(O)ccc2c1
7. Cc1ccccc1C(OCCN(C)C)c1ccccc1 (stereo unspecified)
8. C[C@@H]1Cc2c(Cl)cc(C(=O)N[C@@H](Cc3ccccc3)C(=O)O)c(O)c2C(=O)O1

A:
1: 1180; 2: 9370; 3: 2140; 4: 1470; 5: 580; 6: 947; 7: 255; 8: 20
